Tested on: mitochondrial fatty acid oxidation using palmitoyl CoA as substrate
procedure.details: Palmitoyl CoA oxidation in isolated rat heart mitochondria
Format: biochemical
condition.notes: Table IA, read-out: Effect on Palmitoyl CoA Oxidation (IC50)
Description: Rat heart mitochondria were isolated by the method of Nedergard and Cannon (Methods in Enzymol. 55, 3, 1979). […]
measure.name: IC50 (nM)
Numbers only here, please. The scale is nM.

Cc1nc2cc(OC[C@@H](O)CN3CCN(CC(=O)Nc4cccc(-c5ccccc5)c4)CC3)ccc2s1    180

Request: Output measured IC50 for this item: `Cc1nc2cc(OC[C@@H](O)CN3CCN(CC(=O)Nc4c(C)cccc4C)C[C@@H]3C)ccc2s1`
Result: 200

Request: Output measured IC50 for this item: `Cc1nc2cc(OC[C@H](O)CN3CCN(CC(=O)Nc4c(C)cccc4C)C[C@@H]3C)ccc2s1`
Result: 5000

Request: Output measured IC50 for this item: Cc1nc2cc(OCC(O)CN3CCN(CC(=O)Nc4c(C)cccc4C)CC3)ccc2s1 (stereo not shown)
Result: 15000

* * *

System: mitochondrial fatty acid oxidation using palmitoyl CoA as substrate
procedure.details: Palmitoyl CoA oxidation in isolated rat heart mitochondria
Format: biochemical
condition.notes: Table 1, read-out: IC50 (μm), inhibition of mitochondrial fatty acid oxidation using palmitoyl CoA as substrate
From the text: Rat heart mitochondria were isolated by the method of Nedergard and Cannon (Methods in Enzymol. 55, 3, 1979). […]
measure.name: IC50

Some entries whose results are on file:
Cc1cccc(C)c1NC(=O)CN1CCN(CC(O)COc2cccc3[nH]c(C(N)=O)cc23)CC1 (centres unmarked) [Compound 46]    ~125 µM
Cc1cccc(C)c1NC(=O)CN1CCN(CC(O)COc2ccc3ncsc3c2)CC1 (centres unmarked) [Compound 47]    ~125 µM
Cc1nc2cc(OCC(O)CN3CCN(CC(=O)Nc4c(C)cccc4C)CC3)ccc2s1 (centres unmarked) [Compound 45]    ~20 µM
Cc1nc2cc(OCC(O)CN3CCN(CC(=O)Nc4ccc(O)cc4)CC3)ccc2s1 (centres unmarked) [Compound 54]    ~8 µM

Request: Output measured IC50 for this item: Cc1nc2cc(OCC(O)CN3C(C)CN(CC(=O)Nc4c(C)cccc4C)CC3C)ccc2s1 (centres unmarked) [Compound 52]
Result: ~1 µM

* * *

procedure.details: Metabolic stability, incubation with human liver S-9 fractions
Assay type: in vitro ADME
condition.notes: % parent remaining after 30 min at 37 C with human liver S9, divided by average % ranolazine remaining (57%)
Known Liver S9 Stability Factor of a selection of molecules

Some entries whose results are on file:
Cc1nc2cc(OCC(O)CN3C(C)CN(CC(=O)Nc4c(C)cccc4C)CC3C)ccc2s1 (stereo not shown)    0.5
Cc1ccc2ccc(OCC(O)CN3CCN(CC(=O)Nc4c(C)cccc4C)CC3)cc2n1 (stereo not shown)    0.5
Cc1cccc(C)c1NC(=O)CN1CCN(CC(O)COc2ccc3ncsc3c2)CC1 (stereo not shown)    1.5

Request: Output measured Liver S9 Stability Factor for this item: Cc1cccc(C)c1NC(=O)CN1CCN(CC(O)COc2nc3ccccc3s2)CC1 (stereo not shown)
Result: 0.6

Request: Output measured Liver S9 Stability Factor for this item: Cc1cccc(C)c1NC(=O)CN1CCN(CC(O)COc2ccnc3ccccc23)CC1 (stereo not shown)
Result: 1.0

Request: Output measured Liver S9 Stability Factor for this item: Cc1cccc(C)c1NC(=O)CN1CCN(CC(O)COc2cnc3ccccc3n2)CC1 (stereo not shown)
Result: 0.1

Request: Output measured Liver S9 Stability Factor for this item: Cc1nc2cc(OCC(O)CN3CCN(CC(=O)Nc4c(C)cccc4C)CC3)ccc2s1 (stereo not shown)
Result: 0.8

Request: Output measured Liver S9 Stability Factor for this item: Cc1cccc(C)c1NC(=O)CN1CCN(CC(O)COc2cccc3[nH]c(C(N)=O)cc23)CC1 (stereo not shown)
Result: 1.1

Request: Output measured Liver S9 Stability Factor for this item: Cc1cccc(C)c1NC(=O)CN1CCN(CC(O)COc2cccc3cnccc23)CC1 (stereo not shown)
Result: 0.8

Request: Output measured Liver S9 Stability Factor for this item: Cc1cccc(C)c1NC(=O)CN1CCN(CC(O)COc2ccc3ncccc3c2)CC1 (stereo not shown)
Result: 0.6

* * *

System: mitochondrial fatty acid oxidation using palmitoyl CoA as substrate
procedure.details: Palmitoyl CoA oxidation in isolated rat heart mitochondria
Assay type: biochemical
condition.notes: Table IA, read-out: Effect on Palmitoyl CoA Oxidation (IC50)
Excerpt: Rat heart mitochondria were isolated by the method of Nedergard and Cannon (Methods in Enzymol. 55, 3, 1979). […]
measure.name: pIC50
Note: pIC50 values are expressed as the negative base-10 logarithm of concentration in M.

Some entries whose results are on file:
Cc1nc2cc(OC[C@@H](O)CN3CCN(CC(=O)Nc4c(C)cccc4C)C[C@H]3C)ccc2s1    5.70
Cc1nc2cc(OCC(O)CN3C(C)CN(CC(=O)Nc4c(C)cccc4C)CC3C)ccc2s1 (stereo not drawn) [Compound 52]    6.15
Cc1nc2cc(OC[C@H](O)CN3CCN(CC(=O)Nc4c(C)cccc4C)C[C@H]3C)ccc2s1    5.00
Cc1nc2cc(OC[C@H](O)CN3CCN(CC(=O)Nc4c(C)cccc4C)CC3)ccc2s1    5.40

Request: Jot down pIC50 (mitochondrial fatty acid oxidation using palmitoyl CoA as substrate) of `Cc1cccc(C)c1NC(=O)CN1CCN(C[C@H](O)COc2ccc3oc(-c4cccc(C(F)(F)F)c4)nc3c2)CC1` .
Result: 4.89

Request: Jot down pIC50 (mitochondrial fatty acid oxidation using palmitoyl CoA as substrate) of `Cc1nc2cc(OC[C@@H](O)CN3CCN(CC(=O)Nc4c(C)cccc4C)CC3)ccc2s1` .
Result: 5.10
